Assay target: Sucrase (Rattus norvegicus, UniProt P23739)
Construct: Sucrase was prepared from the mucous membrane of the small intestines of Wistar rats; from tissue; host or cells: mucous membrane of the small intestine of Wistar rats
Sequence (P23739 whole entry): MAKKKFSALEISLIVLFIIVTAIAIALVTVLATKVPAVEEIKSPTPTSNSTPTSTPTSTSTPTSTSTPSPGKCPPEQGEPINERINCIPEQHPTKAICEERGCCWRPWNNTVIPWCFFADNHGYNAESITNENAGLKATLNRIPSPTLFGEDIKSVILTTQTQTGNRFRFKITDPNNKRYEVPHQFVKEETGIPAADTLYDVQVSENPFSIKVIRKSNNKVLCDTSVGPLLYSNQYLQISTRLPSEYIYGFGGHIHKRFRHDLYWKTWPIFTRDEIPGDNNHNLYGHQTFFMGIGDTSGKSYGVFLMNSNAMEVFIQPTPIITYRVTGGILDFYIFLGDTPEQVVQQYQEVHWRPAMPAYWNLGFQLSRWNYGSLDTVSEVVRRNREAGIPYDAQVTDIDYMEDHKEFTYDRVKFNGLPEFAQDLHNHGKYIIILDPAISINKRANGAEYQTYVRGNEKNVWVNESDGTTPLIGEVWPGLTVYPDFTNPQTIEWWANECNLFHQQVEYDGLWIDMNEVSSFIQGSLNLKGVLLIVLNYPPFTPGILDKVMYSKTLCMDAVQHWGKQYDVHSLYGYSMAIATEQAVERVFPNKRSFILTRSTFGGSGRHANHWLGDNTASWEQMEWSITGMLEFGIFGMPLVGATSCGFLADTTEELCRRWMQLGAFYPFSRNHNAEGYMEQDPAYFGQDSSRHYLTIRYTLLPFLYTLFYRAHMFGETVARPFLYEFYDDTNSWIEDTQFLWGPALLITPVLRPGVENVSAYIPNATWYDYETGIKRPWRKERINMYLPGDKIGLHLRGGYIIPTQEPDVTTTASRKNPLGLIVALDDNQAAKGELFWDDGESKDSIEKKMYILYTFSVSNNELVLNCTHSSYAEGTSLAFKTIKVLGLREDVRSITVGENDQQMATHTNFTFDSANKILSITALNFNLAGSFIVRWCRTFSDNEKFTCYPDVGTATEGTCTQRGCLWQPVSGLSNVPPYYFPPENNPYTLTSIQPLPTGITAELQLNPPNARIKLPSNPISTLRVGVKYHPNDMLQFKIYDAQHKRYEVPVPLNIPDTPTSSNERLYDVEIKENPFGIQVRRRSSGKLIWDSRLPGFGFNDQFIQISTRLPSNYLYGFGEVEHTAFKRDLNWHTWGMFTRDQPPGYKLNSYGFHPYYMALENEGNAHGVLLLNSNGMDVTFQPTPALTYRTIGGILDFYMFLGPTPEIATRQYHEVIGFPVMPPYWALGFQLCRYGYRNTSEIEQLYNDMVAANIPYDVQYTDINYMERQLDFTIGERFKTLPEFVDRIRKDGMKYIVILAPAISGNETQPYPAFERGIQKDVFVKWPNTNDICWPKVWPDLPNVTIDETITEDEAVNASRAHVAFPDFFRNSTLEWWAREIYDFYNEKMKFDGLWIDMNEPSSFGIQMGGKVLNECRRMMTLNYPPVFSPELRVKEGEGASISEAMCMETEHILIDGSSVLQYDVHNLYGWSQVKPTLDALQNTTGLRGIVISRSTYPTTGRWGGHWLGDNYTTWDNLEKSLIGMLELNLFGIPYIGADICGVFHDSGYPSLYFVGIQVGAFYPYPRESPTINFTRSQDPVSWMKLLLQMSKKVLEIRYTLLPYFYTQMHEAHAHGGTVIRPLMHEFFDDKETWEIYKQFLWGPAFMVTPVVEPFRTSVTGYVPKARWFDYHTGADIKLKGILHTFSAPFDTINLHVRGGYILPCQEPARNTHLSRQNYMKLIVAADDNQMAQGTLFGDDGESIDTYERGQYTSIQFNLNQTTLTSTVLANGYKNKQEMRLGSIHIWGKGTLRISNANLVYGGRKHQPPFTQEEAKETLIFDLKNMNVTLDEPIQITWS
Protocol description: Sucrase activity inhibition (Dahlquist enzyme preparation, Bernfeld sugar determination)
Type: biochemical, Wistar rats
Condition description: final concentration of 5x10⁻⁴ M; substrate 60mM sucrose solution; 37 °C for 15 minutes; control (distilled water) = 100% activity
Result type: Inhibition (%)

| Compound | Endpoint value |
| --- | --- |
| Oc1cc(O)c2c(c1)O[C@H](c1cc(O)c(O)c(O)c1)[C@H](O)C2 [Epigallocatechin, (-) Epigallocatechin] | 17.3% |
| O=C(O[C@@H]1Cc2c(O)cc(O)cc2O[C@@H]1c1cc(O)c(=O)c2c(O)c(O)cc([C@H]3Oc4cc(O)cc(O)c4C[C@H]3O)c2c1)c1cc(O)c(O)c(O)c1 [Theaflavin Monogallate A] | 45.9% |
| O=c1c(O)cc([C@H]2Oc3cc(O)cc(O)c3C[C@H]2O)cc2c([C@H]3Oc4cc(O)cc(O)c4C[C@H]3O)cc(O)c(O)c12 [Free Theaflavin] | 6.8% |

* * *

Each item that follows carries a reported Inhibition (%).
Assay target: Sucrase (Rattus norvegicus, UniProt P23739)
Construct: Sucrase was prepared from the mucous membrane of the small intestines of Wistar rats; from tissue; host or cells: mucous membrane of the small intestine of Wistar rats
Protocol description: Sucrase activity inhibition (Dahlquist enzyme preparation, Bernfeld sugar determination)
Type: biochemical, Wistar rats
Condition description: final concentration of 5x10⁻⁴ M; substrate 60mM sucrose solution; 37 °C for 15 minutes; control (distilled water) = 100% activity
Result type: Inhibition (%)

| Compound | Endpoint value |
| --- | --- |
| Oc1cc(O)c2c(c1)O[C@H](c1ccc(O)c(O)c1)[C@H](O)C2 [Epicatechin, (-) Epicatechin] | 14.7 |
| O=C(O[C@@H]1Cc2c(O)cc(O)cc2O[C@@H]1c1cc(O)c(=O)c2c(O)c(O)cc([C@H]3Oc4cc(O)cc(O)c4C[C@H]3OC(=O)c3cc(O)c(O)c(O)c3)c2c1)c1cc(O)c(O)c(O)c1 [Theaflavin Digallate] | 95.9 |
| O=C(O)c1cc(O)c(O)c(O)c1 [Gallic Acid, reference compound] | 6.7 |
| O=C(O[C@@H]1Cc2c(O)cc(O)cc2O[C@@H]1c1cc(O)c(O)c2c(=O)c(O)cc([C@H]3Oc4cc(O)cc(O)c4C[C@H]3O)cc12)c1cc(O)c(O)c(O)c1 [Theaflavin Monogallate B] | 59.5 |
| Oc1cc(O)c2c(c1)O[C@H](c1ccc(O)c(O)c1)[C@@H](O)C2 [(+)Catechin, reference compound] | 13.7 |
| O=C(O[C@@H]1Cc2c(O)cc(O)cc2O[C@@H]1c1cc(O)c(O)c(O)c1)c1cc(O)c(O)c(O)c1 [Epigallocatechin Gallate, (-) Epigallocatechin Gallate] | 78.8 |
| O=C(O[C@@H]1Cc2c(O)cc(O)cc2O[C@@H]1c1ccc(O)c(O)c1)c1cc(O)c(O)c(O)c1 [Epicatechin Gallate, (-) Epicatechin Gallate] | 62.5 |
